target: HGFR (Homo sapiens, UniProt P08581); experiment: Inhibitory activity against the HGFR autophosphorylation using ELISA; assay type: cell-based; parameters: endogenous in cells; host or cells: MKN-45 human gastric cancer cells; settings: MKN-45 cells, test substance 1 hr, cell extract
Sequence (P08581 25-1390): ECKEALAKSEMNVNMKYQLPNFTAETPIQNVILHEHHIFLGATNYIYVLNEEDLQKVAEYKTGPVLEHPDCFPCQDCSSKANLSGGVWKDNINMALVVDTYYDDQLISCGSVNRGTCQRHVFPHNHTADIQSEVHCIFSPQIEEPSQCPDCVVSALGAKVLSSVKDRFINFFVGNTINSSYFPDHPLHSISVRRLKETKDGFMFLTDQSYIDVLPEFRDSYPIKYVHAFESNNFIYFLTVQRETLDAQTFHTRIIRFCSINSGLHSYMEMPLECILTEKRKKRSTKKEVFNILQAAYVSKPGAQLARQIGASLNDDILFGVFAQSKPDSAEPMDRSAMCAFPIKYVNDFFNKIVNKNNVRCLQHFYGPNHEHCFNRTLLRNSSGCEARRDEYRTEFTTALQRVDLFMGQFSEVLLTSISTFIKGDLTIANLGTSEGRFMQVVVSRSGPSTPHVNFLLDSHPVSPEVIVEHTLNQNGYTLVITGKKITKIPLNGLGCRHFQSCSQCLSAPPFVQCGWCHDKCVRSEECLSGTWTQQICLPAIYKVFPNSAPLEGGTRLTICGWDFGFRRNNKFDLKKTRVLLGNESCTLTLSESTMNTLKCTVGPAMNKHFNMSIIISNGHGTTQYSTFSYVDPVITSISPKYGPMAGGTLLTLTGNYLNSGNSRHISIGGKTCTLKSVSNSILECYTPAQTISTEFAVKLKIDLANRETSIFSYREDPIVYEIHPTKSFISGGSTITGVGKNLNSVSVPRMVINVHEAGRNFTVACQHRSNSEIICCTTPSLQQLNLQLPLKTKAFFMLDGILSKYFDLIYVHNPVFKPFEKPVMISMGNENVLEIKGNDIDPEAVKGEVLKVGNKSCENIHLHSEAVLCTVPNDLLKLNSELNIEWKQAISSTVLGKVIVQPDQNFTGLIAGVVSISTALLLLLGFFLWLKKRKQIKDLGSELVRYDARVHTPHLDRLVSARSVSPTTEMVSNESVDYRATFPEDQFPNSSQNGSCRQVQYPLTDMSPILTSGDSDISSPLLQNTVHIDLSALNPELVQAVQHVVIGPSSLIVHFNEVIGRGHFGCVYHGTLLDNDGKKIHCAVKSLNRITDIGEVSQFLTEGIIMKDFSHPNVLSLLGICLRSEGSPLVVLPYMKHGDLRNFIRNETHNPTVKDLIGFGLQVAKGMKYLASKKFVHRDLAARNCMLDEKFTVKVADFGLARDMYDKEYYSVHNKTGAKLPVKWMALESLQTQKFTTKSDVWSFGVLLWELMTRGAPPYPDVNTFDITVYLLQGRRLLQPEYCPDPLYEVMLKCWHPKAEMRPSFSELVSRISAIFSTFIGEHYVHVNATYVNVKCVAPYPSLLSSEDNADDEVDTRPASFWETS
Collected IC50 values appear next to each entry.

structure as smiles	IC50
O=C(Nc1cc(Oc2cc(F)c(NC(=O)C3(C(=O)Nc4ccc(F)cc4)CC3)cc2F)ccn1)N1CC[C@H](O)C1	4.5 nM
O=C(Nc1cc(Oc2cc(F)c(NC(=O)C3(C(=O)Nc4ccc(F)cc4)CC3)cc2F)ccn1)N1CC[C@@H](O)C1	3.4 nM
CN1CCC(N(C)C(=O)Nc2cc(Oc3cc(F)c(NC(=O)C4(C(=O)Nc5ccc(F)cc5)CC4)cc3F)ccn2)CC1	11 nM
O=C(Nc1cc(Oc2cc(F)c(NC(=O)C3(C(=O)Nc4ccc(F)cc4)CC3)cc2F)ccn1)N1CC(O)C1	8.4 nM

* * *

biological target: HGFR (Homo sapiens, UniProt P08581); assay: Inhibitory activity against HGFR tyrosine kinase activity (HTRF); format: biochemical; parameters: His6-HGFR, the HGFR cytoplasmic domain fused with six histidine at the N terminus; made in house; host or cells: Sf9 insect cells (baculovirus, pFastBac-HT); conditions: His6-HGFR cytoplasmic domain, biotin-poly(GT) substrate, ATP, 30° C. for 10 min
Sequence (P08581 956-1390 limits assumed): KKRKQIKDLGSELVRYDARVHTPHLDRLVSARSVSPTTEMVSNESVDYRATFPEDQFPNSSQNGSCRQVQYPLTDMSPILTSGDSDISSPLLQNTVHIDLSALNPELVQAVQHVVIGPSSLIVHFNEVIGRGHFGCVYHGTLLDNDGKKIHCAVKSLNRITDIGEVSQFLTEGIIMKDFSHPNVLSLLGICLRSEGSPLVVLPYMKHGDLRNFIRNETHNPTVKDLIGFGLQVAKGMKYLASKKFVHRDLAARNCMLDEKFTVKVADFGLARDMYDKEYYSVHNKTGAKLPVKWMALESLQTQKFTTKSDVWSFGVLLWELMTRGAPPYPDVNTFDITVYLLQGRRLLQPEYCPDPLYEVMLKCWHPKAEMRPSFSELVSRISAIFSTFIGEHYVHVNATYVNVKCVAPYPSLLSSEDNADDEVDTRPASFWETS
pIC50: −log10 of the molar value.
measured quantity: pIC50

structure as smiles	quantitative readout
CN1CCC(N(C)C(=O)Nc2cc(Oc3cc(F)c(NC(=O)C4(C(=O)Nc5ccc(F)cc5)CC4)cc3F)ccn2)CC1	7.31
O=C(Nc1cc(Oc2cc(F)c(NC(=O)C3(C(=O)Nc4ccc(F)cc4)CC3)cc2F)ccn1)N1CC[C@H](O)C1	7.80
O=C(Nc1cc(Oc2cc(F)c(NC(=O)C3(C(=O)Nc4ccc(F)cc4)CC3)cc2F)ccn1)N1CC[C@@H](O)C1	8.00
O=C(Nc1cc(Oc2cc(F)c(NC(=O)C3(C(=O)Nc4ccc(F)cc4)CC3)cc2F)ccn1)N1CC(O)C1	8.40

Data credit: patent US7790885B2
